Study target: human chorionic gonadotropin (hCG) heterodimer (Homo sapiens, UniProt P01215;P0DN86 P01215:25-116,P0DN86:21-165)
Sequence (P01215 25-116, chain 1 of 2, other chains not shown): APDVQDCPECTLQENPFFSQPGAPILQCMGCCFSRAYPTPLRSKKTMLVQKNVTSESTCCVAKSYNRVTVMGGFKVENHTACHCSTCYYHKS
Assay text: filter; +/- 3 nM (Table 5)
Run conditions: tags: Calbiochem or Vitro Diagnostics (14,000 IU/mg); chain copies: alpha/beta heterodimer (stated); label: 32P; G4 (RNase T1 protection in K+)
Property measured: Kd (nM)
// units = nM; emit number, no label

Data request: Assign Kd to the following record: H-17 (ssRNA, 2'-NH2 all pyrimidines) RNA: GGGAGGACGAUGCGGAGGGAACGCGGAGGGGUGUGUCCCCCAGACUACAAGGCGGCAGACGACUCGCCCGA
Data returned: 7.5
